# assayed-target: mu-type opioid receptor (Rattus norvegicus)
# Construct: using rat forebrain membranes; from tissue; host or cells: rat forebrain membranes
# Sequence (P33535 whole entry): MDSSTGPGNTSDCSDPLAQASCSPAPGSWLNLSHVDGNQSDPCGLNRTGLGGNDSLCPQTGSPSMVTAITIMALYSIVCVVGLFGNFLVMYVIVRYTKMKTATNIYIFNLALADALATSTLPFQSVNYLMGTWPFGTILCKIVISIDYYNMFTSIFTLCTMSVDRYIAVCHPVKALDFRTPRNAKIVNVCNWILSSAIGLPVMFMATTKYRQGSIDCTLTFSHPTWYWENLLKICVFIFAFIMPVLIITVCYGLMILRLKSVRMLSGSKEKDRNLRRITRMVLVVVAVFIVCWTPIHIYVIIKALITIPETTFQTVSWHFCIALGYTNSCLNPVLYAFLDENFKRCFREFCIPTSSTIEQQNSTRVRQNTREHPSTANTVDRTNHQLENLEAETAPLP
# assay-explanation: inhibition of specific [^3 H] DAGO binding to rat forebrain membranes
# measurement-parameters: (Ki) nM, μ receptor (Rat Forebrain), Table 6; [^3 H] DAGO, mean of three experiments
This listing pairs compounds with measured Ki.
// note: answer is a bare numeric in nM

| compound | units-of-measure | Ki |
| --- | --- | --- |
| Cc1ccc(ON=C2CC[C@@]3(O)[C@H]4Cc5ccc(O)c6c5[C@@]3(CCN4CC3CC3)[C@H]2O6)cc1C | nM | 1.64 |

Query (compound): Oc1ccc2c3c1O[C@H]1C(=NOC4CCCc5ccccc54)CC[C@@]4(O)[C@@H](C2)N(CC2CC2)CC[C@]314 (some centres unmarked) ; field requested: Ki
2.76

Query (compound): Oc1ccc2c3c1O[C@H]1C(=NOCCc4ccccc4)CC[C@@]4(O)[C@@H](C2)N(CC2CC2)CC[C@]314 ; field requested: Ki
0.88

Query (compound): Oc1ccc2c3c1O[C@H]1C(=NOc4ccccc4C(F)(F)F)CC[C@@]4(O)[C@@H](C2)N(CC2CC2)CC[C@]314 ; field requested: Ki
3.77

These entries and their values trace back to patent US4889860A.
